tgt: somatostatin receptor SSTR2 (Human, UniProt P30874 1-369)
Sequence (P30874 whole entry): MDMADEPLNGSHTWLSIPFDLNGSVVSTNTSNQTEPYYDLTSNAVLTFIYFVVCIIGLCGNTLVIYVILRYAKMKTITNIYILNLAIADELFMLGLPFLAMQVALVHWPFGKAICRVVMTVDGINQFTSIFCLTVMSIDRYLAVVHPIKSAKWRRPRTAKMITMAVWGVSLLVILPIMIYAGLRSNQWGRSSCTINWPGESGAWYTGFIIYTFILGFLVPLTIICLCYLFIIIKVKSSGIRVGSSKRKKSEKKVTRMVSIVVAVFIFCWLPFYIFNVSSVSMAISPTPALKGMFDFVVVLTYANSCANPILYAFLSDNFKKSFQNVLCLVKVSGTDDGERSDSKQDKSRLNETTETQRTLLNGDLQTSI
procedure_details: radioligand competition
Bridges are numbered along the chain shown (N, C = ends). Where no end group is shown, it is not given here. disialo = disialo sugar chain

>  <binder>
C(disialo)ANSNPAMAPRERKAGCKNFFWKTFTSC (disulfide 17-28) [S1C(disialo)-SRIF28]

>  <readout_units>
nM

>  <Ki>
0.269

$$$$
